# targetSystem: plasma purified human antithrombin III (AT-III) in complex with full-length unfractionated heparin (UFH)
measurementType: K0.5-mut/K0.5-wt (fold)
Provide only the numeric value, understood in fold.

Per the record, FIXa D104N/K106S/K228N/K247N/N249S (protein) chain 1: YNSGKLEEFVQGNLERECMEEKCSFEEAREVFENTERTTEFWKQYVDGDQCESNPCLNGGSCKDDINSYECWCPFGFEGKNCELDVTCNIKNGRCEQFCKNSANNSVVCSCTEGYRLAENQKSCEPAVPFPCGRVSVSQTSKLTR chain 2: VVGGEDAKPGQFPWQVVLNGKVDAFCGGSIVNEKWIVTAAHCVETGVNITVVAGEHNIEETEHTEQNRSVIRIIPHHNYNAAINKYNHDIALLELDEPLVLNSYVTPICIADKEYTNIFLKFGSGYVSGWGRVFHKGRSALVLQYLRVPLVDRATCLRSTKFTIYNNMFCAGFHEGGRDSCQGDSGGPHVTEVEGTSFLTGIISWGEECAMKGKYGIYTKVSRYVNWIKEKTKLT has K0.5-mut/K0.5-wt of 2.1
